Molecular target: Metabotropic glutamate receptor 5 (Homo sapiens, UniProt P41594)
Sequence (P41594 whole entry): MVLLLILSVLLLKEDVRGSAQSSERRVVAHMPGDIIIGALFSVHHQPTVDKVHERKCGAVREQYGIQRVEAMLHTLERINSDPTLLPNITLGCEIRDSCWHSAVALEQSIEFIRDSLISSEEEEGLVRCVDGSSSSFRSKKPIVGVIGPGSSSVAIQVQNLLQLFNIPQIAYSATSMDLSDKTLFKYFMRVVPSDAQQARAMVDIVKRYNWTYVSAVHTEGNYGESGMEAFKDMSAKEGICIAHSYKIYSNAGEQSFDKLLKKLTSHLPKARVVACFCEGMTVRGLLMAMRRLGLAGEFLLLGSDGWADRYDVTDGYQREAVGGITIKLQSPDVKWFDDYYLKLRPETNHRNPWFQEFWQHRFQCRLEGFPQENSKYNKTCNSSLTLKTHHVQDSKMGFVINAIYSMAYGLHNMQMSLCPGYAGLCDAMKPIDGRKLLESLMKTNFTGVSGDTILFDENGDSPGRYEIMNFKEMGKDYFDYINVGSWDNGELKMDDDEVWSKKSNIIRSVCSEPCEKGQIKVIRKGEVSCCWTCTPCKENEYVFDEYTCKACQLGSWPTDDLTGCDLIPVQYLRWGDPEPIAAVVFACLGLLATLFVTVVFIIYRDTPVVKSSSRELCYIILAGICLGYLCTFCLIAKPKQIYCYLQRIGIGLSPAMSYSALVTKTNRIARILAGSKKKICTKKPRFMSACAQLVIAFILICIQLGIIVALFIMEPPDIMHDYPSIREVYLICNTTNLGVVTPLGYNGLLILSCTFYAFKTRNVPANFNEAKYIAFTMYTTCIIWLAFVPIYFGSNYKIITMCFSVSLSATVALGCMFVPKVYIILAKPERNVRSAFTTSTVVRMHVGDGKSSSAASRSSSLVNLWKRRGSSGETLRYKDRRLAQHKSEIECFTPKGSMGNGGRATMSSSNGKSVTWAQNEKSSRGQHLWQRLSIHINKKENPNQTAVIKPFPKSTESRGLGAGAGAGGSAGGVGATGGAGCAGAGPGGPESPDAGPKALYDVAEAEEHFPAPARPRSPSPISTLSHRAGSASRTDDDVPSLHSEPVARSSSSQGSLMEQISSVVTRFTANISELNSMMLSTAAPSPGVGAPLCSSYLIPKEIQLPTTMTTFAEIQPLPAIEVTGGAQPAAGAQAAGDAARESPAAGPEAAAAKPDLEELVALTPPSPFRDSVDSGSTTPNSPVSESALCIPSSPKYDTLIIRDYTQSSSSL
Assay: Agonist potency against cloned metabotropic glutamate receptor 5
Type: functional
Some compounds, each annotated with its measured Ki.

Consider the reported Ki for these compounds:
N[C@@]1(C(=O)O)CO[C@H]2[C@H](C(=O)O)[C@H]21 [LY-379268] : > 100 µM
Cc1cc(C(=O)O)ccc1C(N)C(=O)O (single isomer, unassigned; (+)) : > 100 µM
Cc1onc(O)c1CC[C@H](N)C(=O)O : > 1000 µM
CC(N)(C(=O)O)c1ccc(C(=O)O)cc1 (configuration not stated) : > 2000 µM
NC1(C(=O)O)CCc2cc(C(=O)O)ccc21 (configuration not stated) : > 1000 µM
N[C@@]1(C(=O)O)CN[C@@H](C(=O)O)C1 : > 100 µM

Supply recorded Ki for `N[C@@H](C[C@H](CCCC(c1ccccc1)c1ccccc1)C(=O)O)C(=O)O` here.
> 300 µM

###

Target: Metabotropic glutamate receptor 4 (Homo sapiens)
Sequence (Q14833 whole entry): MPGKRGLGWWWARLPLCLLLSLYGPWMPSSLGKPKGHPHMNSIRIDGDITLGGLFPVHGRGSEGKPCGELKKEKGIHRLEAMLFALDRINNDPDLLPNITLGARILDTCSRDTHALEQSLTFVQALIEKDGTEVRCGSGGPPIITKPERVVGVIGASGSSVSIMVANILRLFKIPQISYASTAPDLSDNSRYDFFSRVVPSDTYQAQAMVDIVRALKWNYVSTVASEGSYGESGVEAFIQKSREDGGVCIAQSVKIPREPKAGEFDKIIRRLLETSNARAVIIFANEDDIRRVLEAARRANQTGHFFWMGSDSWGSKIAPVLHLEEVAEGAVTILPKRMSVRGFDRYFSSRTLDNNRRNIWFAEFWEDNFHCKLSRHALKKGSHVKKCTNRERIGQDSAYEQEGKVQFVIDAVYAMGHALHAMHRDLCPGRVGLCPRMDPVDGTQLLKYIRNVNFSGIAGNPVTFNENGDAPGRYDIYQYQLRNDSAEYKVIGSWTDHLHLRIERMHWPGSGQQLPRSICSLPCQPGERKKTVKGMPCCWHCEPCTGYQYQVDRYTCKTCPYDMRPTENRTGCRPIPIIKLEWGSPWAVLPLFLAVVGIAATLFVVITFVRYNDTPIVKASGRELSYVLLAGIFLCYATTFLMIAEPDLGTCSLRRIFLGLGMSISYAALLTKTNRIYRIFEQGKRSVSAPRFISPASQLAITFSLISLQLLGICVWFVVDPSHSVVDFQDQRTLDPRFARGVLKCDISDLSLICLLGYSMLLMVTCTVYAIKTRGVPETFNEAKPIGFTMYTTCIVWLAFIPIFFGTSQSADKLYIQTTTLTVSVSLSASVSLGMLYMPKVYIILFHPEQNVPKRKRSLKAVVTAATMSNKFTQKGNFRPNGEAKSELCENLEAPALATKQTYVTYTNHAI
Assay: Agonist potency against cloned human Metabotropic glutamate receptor 4 (mGluR-4)
Quantity Kind: Ki

Consider the reported Ki for these compounds:
NC1(C(=O)O)C[C@H](C(=O)O)[C@@H](C(=O)O)C1 : 8.8 µM
N[C@@H](C[C@H](CCCC(c1ccccc1)c1ccccc1)C(=O)O)C(=O)O : > 300 µM

Supply recorded Ki for NC(C(=O)O)c1cccc(O)c1 (configuration not stated) here.
> 1000 µM

Supply recorded Ki for `N[C@H](C(=O)O)c1cc(O)cc(O)c1` here.
> 1000 µM

Supply recorded Ki for N[C@@]1(C(=O)O)CSC2C1[C@H]2C(=O)O (some centres not stated) here.
> 100 µM

Supply recorded Ki for `N[C@@H](CCn1oc(=O)[nH]c1=O)C(=O)O` here.
> 1000 µM

Supply recorded Ki for CC(N)(C(=O)O)c1ccc(C(=O)O)cc1 (configuration not stated) here.
> 1000 µM

###

Target: Metabotropic glutamate receptor 1 (Homo sapiens, UniProt Q13255)
Sequence (Q13255 whole entry): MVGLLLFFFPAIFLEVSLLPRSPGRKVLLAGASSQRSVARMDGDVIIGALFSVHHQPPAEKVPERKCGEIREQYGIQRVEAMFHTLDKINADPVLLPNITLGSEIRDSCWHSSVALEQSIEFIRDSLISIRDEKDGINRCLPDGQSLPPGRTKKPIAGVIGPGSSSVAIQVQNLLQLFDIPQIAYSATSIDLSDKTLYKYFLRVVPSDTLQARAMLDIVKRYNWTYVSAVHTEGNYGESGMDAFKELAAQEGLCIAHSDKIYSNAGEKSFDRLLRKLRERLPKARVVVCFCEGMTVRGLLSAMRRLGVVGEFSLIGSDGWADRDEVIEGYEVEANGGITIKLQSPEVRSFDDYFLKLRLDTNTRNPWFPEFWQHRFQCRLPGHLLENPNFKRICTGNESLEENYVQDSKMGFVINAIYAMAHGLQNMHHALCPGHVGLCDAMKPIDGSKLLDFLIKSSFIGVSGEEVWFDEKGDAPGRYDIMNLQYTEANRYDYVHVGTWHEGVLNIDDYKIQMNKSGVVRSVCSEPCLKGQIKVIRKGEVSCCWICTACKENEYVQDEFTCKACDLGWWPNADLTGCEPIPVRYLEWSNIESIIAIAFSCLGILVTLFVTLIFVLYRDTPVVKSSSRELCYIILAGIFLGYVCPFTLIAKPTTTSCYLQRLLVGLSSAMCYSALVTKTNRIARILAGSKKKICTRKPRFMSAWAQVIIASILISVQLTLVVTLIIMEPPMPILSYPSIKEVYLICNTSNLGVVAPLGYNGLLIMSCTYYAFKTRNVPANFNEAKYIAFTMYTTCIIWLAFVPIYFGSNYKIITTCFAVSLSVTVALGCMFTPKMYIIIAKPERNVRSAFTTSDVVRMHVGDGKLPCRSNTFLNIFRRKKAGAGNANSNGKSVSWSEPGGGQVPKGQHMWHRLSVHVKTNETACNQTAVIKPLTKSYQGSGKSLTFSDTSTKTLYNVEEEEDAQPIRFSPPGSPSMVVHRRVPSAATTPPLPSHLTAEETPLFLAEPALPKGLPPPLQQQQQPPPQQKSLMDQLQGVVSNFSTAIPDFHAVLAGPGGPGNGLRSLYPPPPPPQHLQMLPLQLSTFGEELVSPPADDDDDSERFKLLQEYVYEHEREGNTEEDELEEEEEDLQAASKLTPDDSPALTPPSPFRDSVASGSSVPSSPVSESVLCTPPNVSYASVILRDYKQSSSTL
Assay: Agonist potency against cloned human metabotropic glutamate receptor 1
pKi: −log10 of the molar value.
Some compounds, each annotated with its measured pKi.

Consider the reported pKi for these compounds:
NC(C(=O)O)c1ccc(C(=O)O)c(O)c1 (stereo not drawn) : 4.52
N[C@@]1(C(=O)O)CCC2C[C@H](C(=O)O)C21 (stereo partly drawn) : < 3.00
CCCCc1c(C[C@H](N)C(=O)O)o[nH]c1=O : 3.96
NC1(C(=O)O)C[C@H](C(=O)O)[C@@H](C(=O)O)C1 : < 3.00
N[C@@]1(C(=O)O)CSC2C1[C@H]2C(=O)O (stereo partly drawn) : < 4.00

Supply recorded pKi for `N[C@@]1(C(=O)O)CC[C@H]2[C@H](C(=O)O)[C@H]21` here.
< 4.00

Supply recorded pKi for `Clc1cccc(Cl)c1/C(=C/n1cncn1)OC1CCCCCC1` here.
< 4.00

Supply recorded pKi for `Cc1ccc(O)c(/N=N/c2ccccc2)n1` here.
< 4.00

Supply recorded pKi for `N[C@](CC1c2ccccc2Oc2ccccc21)(C(=O)O)[C@H]1C[C@@H]1C(=O)O` here.
5.17

###

Molecular target: Metabotropic glutamate receptor 1 (Homo sapiens)
Assay: Agonist potency against cloned human metabotropic glutamate receptor 1
Quantity Kind: Ki

Consider the reported Ki for these compounds:
Cc1onc(O)c1CC[C@H](N)C(=O)O : > 1 mM
Cc1cccc(/C=C/c2ccccc2)n1 : > 0.1 mM
N[C@@H](CCCC(=O)O)C(=O)O [(S)-2-AMINOADIPIC ACID] : > 1 mM

Supply recorded Ki for `N[C@@H](CCP(=O)(O)O)C(=O)O` here.
> 1 mM

Measured values drawn from ChEMBL document CHEMBL1133464 for this set.
